system: K-562 leukemia; experiment: NCI tumour cell line growth inhibition, 48 h
property-label: TGI

Input C1COCCSC2=C(SCCO1)SC(=C1SC3=C(SCCOCCOCCS3)S1)S2 . Output TGI: > 100 µM

The recorded TGI for entry C=C1CC[C@H]2C(=O)OC(c3ccoc3)C[C@]2(C)C/C=C\C=C/1C(=O)OC (stereo not given in full) equals > 25 µM

What the record says about CC(NC(=O)Cc1ccccc1)NC(=O)C(C)C(=O)NCc1ccccc1 (stereo not given) : TGI is > 100 µM

// field: TGI; key: CC(=O)O[C@@]12CO[C@@H]1CC(O)[C@@]1(C)C(=O)[C@H](O)C3=C(C)C(O)C[C@@](O)(C(OC(=O)c4ccccc4)C12)C3(C)C (stereo not given in full) ; value = > 100 µM

Sample CN1CC=C(c2c(N)nc(N)[nH]c2=O)CC1 ; TGI observed: > 100 µM

###

system: SW-620 colon; test: NCI tumour cell line growth inhibition, 48 h
property-label: TGI

The compound COc1ccc(-c2cc(Nc3ccnc(N4CCOCC4)n3)on2)cc1 showed TGI equal to 18.5 µM

Measured TGI, O=C1CC(=O)NC(=NN2C(=O)/C(=C/c3ccc(Cl)c(Cl)c3)N=C2c2ccccc2)N1 : > 100 µM

Please fill in: TGI reported for CC1CC(Nc2ccc(Br)cc2)N(C(=O)c2ccc(Br)cc2)O1 (stereo not given) = > 10 µM

For O=C(Cn1c2ccc(Br)cc2c2nc3ccccc3nc21)NNC(=S)NC1CCCCC1 the compound record lists TGI as 29.2 µM

Per the record, CS(=O)(=O)N1CC(CCl)c2ccc(O)cc21 (stereo not given) has TGI of 11.5 µM

Record CC(=O)NC1C(Sc2ncn(C3OC(CO)C(O)C(O)C3NC(C)=O)n2)OC(CO)C(O)C1O (stereo not given) , field TGI: > 100 µM

// sample O=C(N[C@@H](Cc1coc2ccccc12)B(O)O)[C@@H]1C[C@H]2CC[C@@H]1O2 , its TGI was > 100 µM

So for O=C1/C(=C/N2N=C(c3ccc4ccccc4c3)CC2c2ccccc2O)SC(=S)N1c1cccnc1 (stereo not given) , the logged TGI turned out to be > 100 µM

# TGI (compound: CC1(C)N=C(N)N=C(N)N1c1cccc(OCCOc2cccc([N+](=O)[O-])c2)c1 ) is > 100 µM

Lab note: COc1ccc2c(c1)C(C)Cc1c(ncnc1-n1cnc3ccccc31)N2C (stereo not given) gave TGI of 17.8 µM

// COCCn1cnc2c(Cl)nc(Nc3ccccc3)nc21 : TGI value = > 100 µM

Kindly note the recorded TGI for COc1ccc(/C=N/n2cnc3c(c2=O)SC(=C(C#N)C#N)N3c2ccccc2)cc1 , which is > 100 µM

The compound CCOC(=O)C(Cc1ccc(O)cc1)Nc1nc(=O)c2c(=O)oc(Cl)cc2o1 (stereo not given) showed TGI equal to 15.2 µM

get_value(item= COc1cc(/C=N\O[Si](C)(C)C(C)(C)C)ccc1O[Si](C)(C)C(C)(C)C , readout=TGI) returns > 100 µM

For reference, reported TGI for CC(=O)OC(CCC1(C)OC1COc1ccc(CCNC(=O)C=C(C)C)cc1)C(C)(C)OC(C)=O (stereo not given) stands at > 100 µM

GET /value?item= O=Cc1ccc(-c2ccc(-c3ccc(CO)s3)o2)s1 &field=TGI returns > 100 µM

Given item COC(=O)[C@@H](NC(=O)N(Cc1ccccc1)C[C@H](CC(C)C)NC(=O)[C@@H](NC(=O)OC(C)(C)C)C(C)C)C(C)C , the value recorded as its TGI is > 100 µM

# compound CN1CCCOC(c2ccc(Cl)cc2)O1 (stereo not given) ; its TGI = > 100 µM

So for O=C(CCN1CCOCC1)Nc1cccc(-n2cc(-c3ccncc3)c(-c3ccc(Cl)c(O)c3)n2)c1 , the logged TGI turned out to be 12.6 µM

Just so you know, measured TGI for CC(=O)OCC1OC(n2c(C)c(N=Nc3ccc(Cl)cc3)c(C)c(C#N)c2=S)C(OC(C)=O)C(OC(C)=O)C1OC(C)=O (stereo not given) came out at > 100 µM

###

tested on: SW-620 colon; test: NCI tumour cell line growth inhibition, 48 h; in the data active means GI50 below about 0.43 µM; inactive means the rest
Choose the fitting class; nothing outside 1.0 (active), 0.0 (inactive) is accepted.

Problem: Outcome logged for Cc1cc(NCCCCNc2ccnc3cc(Cl)ccc23)nc(Nc2ccc(C(=O)N3CCCCC3)cc2)n1 in this assay:
Solution: 0.0

Problem: Record request — test call for CC1(C)N=C(N)N=C(N)N1c1cccc(OCCOc2cccc([N+](=O)[O-])c2)c1
Solution: 0.0

Problem: Identify the outcome logged in this assay for the compound shown: COc1cc2c3c(n(CCCN(C)CCO)c(=O)c2cc1OC)-c1cc2c(cc1C3=O)OCO2
Solution: 0.0

Problem: Returns: the outcome recorded for Cn1cc(S(=O)(=O)N2CCC3=Cc4c(cnn4-c4ccc(F)cc4)C[C@]3(C(=O)c3cc(C(F)(F)F)ccn3)C2)cn1 in this assay.
Solution: 0.0

Problem: Check the results log: what was the call for COC(=O)[C@]12CC[C@@H](C)[C@H](C)[C@@H]1C1=CC[C@@H]3[C@@]4(C)C(C=O)=C[C@@](C)(COC(=O)c5ccco5)[C@@H]4[C@H](O)C[C@@]3(C)[C@]1(C)CC2 ?
Solution: 0.0

Problem: How did this test come out for COc1ccc(-c2noc(N)c2-c2cc(OC)c3c(c2)OCO3)cc1 ?
Solution: 0.0

Problem: Kindly provide the recorded test outcome for the following compound: N#CC(C#N)=C1CCCOc2c1ccc1ccccc21
Solution: 0.0

Problem: Fill in: this test's call for NC(=O)CNc1ccc([As]=[As]c2ccc(NCC(N)=O)cc2)cc1 (centres undefined) is ___
Solution: 0.0

Problem: Which outcome was entered for the compound COc1cc2c3c(n(CCCN(CCO)CCO)c(=O)c2cc1OC)-c1cc2c(cc1C3=O)OCO2 in this test?
Solution: 1.0

###

test system: HOP-18 NSCLC; test: NCI tumour cell line growth inhibition, 48 h
Assignment: determine reported TGI for the given compounds.

Measured TGI, Cc1ccc2[c](c1)[Sn]([c]1ccccc1)([c]1ccccc1)[c]1cc(C)ccc1N2C : > 100 µM

Quick note, TGI for CN(C)CCNC(=O)c1cccc2[nH]c(-c3ccccn3)nc12 landed at > 87 µM

# compound NC(=O)c1cn(Cc2ccccc2)c(=O)n1Cc1ccccc1 ; its TGI = > 100 µM

Form field TGI, entry COc1ccc(C2COc3c(ccc(O)c3C)C2)cc1OC (stereo unspecified) : 30.8 µM

The reported TGI of the compound O=C1c2ccccc2C(=O)N1C/C=N/NS(=O)(=O)c1ccc(Br)cc1 was > 100 µM

Looking up CC1COS(=O)O1 (stereo unspecified) , I found its TGI recorded as > 100 µM

###

tested on: CCRF-CEM leukemia; assay: NCI tumour cell line growth inhibition, 48 h
property-label: TGI (µM)
Numeric only. Scale: µM

// recorded TGI for O=C(Nc1ccc(Cl)cc1)Nc1nccs1 : 62

Consider CCOC(=O)C(C)(c1c(C)[nH]c2ccccc12)c1c(C)[nH]c2ccccc12 . Its measured TGI is 58

Per the record, N[C@H](Cc1ccc2oc3cc(=O)c4ccccc4c-3nc2c1)C(=O)O has TGI of 56.2

TGI for COc1ccc2c(c1)c(-c1nc(-c3c[nH]c4ncccc34)cs1)cn2CCCCN1CCCCC1 is 3.5

###

system: RPMI-8226 leukemia; test: NCI tumour cell line growth inhibition, 48 h
Hi there, I'd appreciate the recorded GI50 for every entry that follows.

GI50 of NCCN.O=C([O-])[O-].O=C([O-])[O-].[Co+3].[K+] , assay on RPMI-8226 leukemia, is > 100 µM

# GI50 measured on RPMI-8226 leukemia for item CN1C(NNC(=O)c2cccnc2)=NS(=O)(=O)c2cc(Cl)ccc21 = > 100 µM

Simply: O=C(Nc1ccc(Cl)cc1)Nc1nccs1 , RPMI-8226 leukemia, GI50 = 2.63 µM

###

Assign TGI to each entry below.
tested on: OVCAR-5 ovarian; assay: NCI tumour cell line growth inhibition, 48 h
Provide only the numeric value, understood in µM.

TGI for O=C(CCN1CCOCC1)Nc1cccc(-n2cc(-c3ccncc3)c(-c3ccc(Cl)c(O)c3)n2)c1 is 18.4

TGI recorded for this compound, CC(=O)c1c(N=[N+]=[N-])c2cccc3c2n(c1=O)CCC3 , is 34.5

The compound listed as CCOC(=O)C1=C(N)Oc2c(sc3c(C)cccc23)C1c1ccc(F)cc1 (stereo not given) has a reported TGI of 17.6

###

system: NCI-H226 lung; assay: NCI tumour cell line growth inhibition, 48 h
Provide the recorded log10(TGI) for the entries that follow.
Values reflect log10 of reported TGI (µM).

Recorded result, O=C(Cn1c2ccc(Br)cc2c2nc3ccccc3nc21)NNC(=S)NC1CCCCC1 , log10(TGI): 1.53

Memo: CCCCC1C=Cn2c(=O)oc3c(OC(C)C)c(C)c(O)c1c32 (configuration not stated) , reported log10(TGI): 0.91

Lab note: Cc1ccnc2c1C(=O)C1=C(OC(C)(C)CC1O)C2=O (configuration not stated) gave log10(TGI) of 1.33

Note to self: log10(TGI) recorded for CS(=O)(=O)CS(=O)(=O)OCCCl was 2.89

Looking up COc1ccc(-c2cc(Nc3ccnc(N4CCOCC4)n3)on2)cc1 , I found its log10(TGI) recorded as 0.99

Kindly note the recorded log10(TGI) for CCC[CH2][Sn]1([CH2]CCC)[O]CC(COc2c(Cl)cc(Cl)cc2Cl)[O]1 (configuration not stated) , which is 0.58

log10(TGI) for Cc1cc(NCCCCNc2ccnc3cc(Cl)ccc23)nc(Nc2ccc(C(=O)N3CCCCC3)cc2)n1 is 0.89

Value of measured log10(TGI) for the entry COc1cc2c3c(n(CCCN(C)CCO)c(=O)c2cc1OC)-c1cc2c(cc1C3=O)OCO2 : 1.42

Per the records, this molecule ( COc1ccc(/C=N/N=C(\N)NO)c(OC)c1C ) has log10(TGI) equal to 1.69

Values compiled from PubChem BioAssay (NCI).
